Test System: acetylcholine receptor on AchR-overexpressed TE671 cells
Run Description: cell-based or functional assay
Entries and their AchR inhibitory rate, TE671 cells, 400 µM nicotine, 20 µM peptide

// known answers, use as guide
Please look up its AchR inhibitory rate, TE671 cells, 400 µM nicotine, 20 µM peptide: SNVKRKRGRCKPYR [L3-37] ~100%

Requested read-out: AchR inhibitory rate, TE671 cells, 400 µM nicotine, 20 µM peptide. Entry: RFRRGVRR [L1-13] ~100%

Tell me the measured AchR inhibitory rate, TE671 cells, 400 µM nicotine, 20 µM peptide of PNGKVRKRIRRRYF [L3-28] , please. ~100%

New cases:
Which AchR inhibitory rate, TE671 cells, 400 µM nicotine, 20 µM peptide is listed for WTWKGRKSLLR [Spep-2] ? ~10%

Give its AchR inhibitory rate, TE671 cells, 400 µM nicotine, 20 µM peptide value. Item: RYAKHRKRQTR [L2-110] ~100%

I have this binder here, RARKKRKSLLRRQV [L3-27] , and I need its recorded AchR inhibitory rate, TE671 cells, 400 µM nicotine, 20 µM peptide. ~100%
